target: Serine/threonine-protein kinase AKT (Homo sapiens, UniProt P31751+Q9Y243+P31749); experiment: Inhibition of Akt (proto-oncogenic serine/threonine PKB) kinase; format: protein assay

>  <Smi>
CCCCCCCCCCCCCCCCCCOC[C@H](COP(=O)(O)O[C@@H]1[C@H](O)[C@H](CO)[C@@H](O)[C@H](O)[C@@H]1O)OC

>  <Unit Tag>
µM

>  <IC50>
7.8

$$$$
>  <Smi>
CCCCCCCCCCCCCCCCCCOC[C@H](COC(=O)O[C@@H]1[C@H](O)[C@H](CO)[C@@H](O)[C@H](O)[C@@H]1O)OC

>  <Unit Tag>
µM

>  <IC50>
5

$$$$
>  <Smi>
CCCCCCCCCCCCCCCCCCOC[C@H](COC(=O)O[C@@H]1[C@H](O)[C@@H](CO)[C@@H](O)[C@H](O)[C@@H]1O)OC

>  <Unit Tag>
µM

>  <IC50>
32

$$$$
>  <Smi>
CCCCCCCCCCCCCCCCCCOC[C@H](COP(=O)(O)O[C@@H]1[C@H](O)[C@@H](CO)[C@@H](O)[C@H](O)[C@@H]1O)OC

>  <Unit Tag>
µM

>  <IC50>
9.1

$$$$
>  <Smi>
CCCCCCCCCCCCCCCCCCOC[C@H](COC(=O)O[C@H]1[C@@H](O)[C@@H](O)[C@H](O)C[C@H]1O)OC

>  <Unit Tag>
µM

>  <IC50>
12.5

$$$$

Ref: ChEMBL document CHEMBL1133107
